Hey, just so you know, these numbers are from ChEMBL document CHEMBL3988442.

Target desc: Protein translocase subunit SecA (Escherichia coli (strain K12)) (UniProt P10408)
Sequence (P10408 whole entry): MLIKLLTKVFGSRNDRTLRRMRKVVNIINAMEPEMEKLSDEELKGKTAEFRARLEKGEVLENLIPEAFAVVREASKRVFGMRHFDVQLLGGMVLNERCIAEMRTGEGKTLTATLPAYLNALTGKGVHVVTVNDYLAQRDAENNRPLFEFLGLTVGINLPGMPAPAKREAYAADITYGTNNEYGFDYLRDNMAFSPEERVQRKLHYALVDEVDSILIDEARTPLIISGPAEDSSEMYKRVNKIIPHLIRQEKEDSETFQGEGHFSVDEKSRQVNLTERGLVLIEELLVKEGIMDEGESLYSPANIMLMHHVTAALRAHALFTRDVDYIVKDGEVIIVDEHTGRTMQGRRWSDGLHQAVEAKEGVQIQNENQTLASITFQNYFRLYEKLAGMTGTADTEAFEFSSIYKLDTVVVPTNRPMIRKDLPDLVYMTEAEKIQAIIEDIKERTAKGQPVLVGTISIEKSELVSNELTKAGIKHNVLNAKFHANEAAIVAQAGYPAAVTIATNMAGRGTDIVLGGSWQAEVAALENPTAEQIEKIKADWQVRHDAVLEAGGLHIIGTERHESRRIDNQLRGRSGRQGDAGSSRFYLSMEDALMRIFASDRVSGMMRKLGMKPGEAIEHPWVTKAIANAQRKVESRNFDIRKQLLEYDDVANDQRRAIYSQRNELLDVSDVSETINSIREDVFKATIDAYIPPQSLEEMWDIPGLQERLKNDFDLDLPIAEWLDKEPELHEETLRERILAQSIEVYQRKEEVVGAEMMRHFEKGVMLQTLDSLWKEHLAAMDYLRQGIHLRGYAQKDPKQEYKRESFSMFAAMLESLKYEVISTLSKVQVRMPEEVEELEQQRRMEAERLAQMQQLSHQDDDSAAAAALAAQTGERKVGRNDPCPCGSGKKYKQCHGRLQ
Experimental details: Assay to Identify E. coli SecA ATPase Inhibitors
Format: functional
Set-up: scale not given: direction of the effect not stated beside the values
Run conditions: 30 µM
Entries with a potency or affinity are not part of this list.
Value kind: Percent Effect (%)
# number only, unit % dropped from output

Returns the measured Percent Effect for the input molecule. Input: Cc1nccn1C1CCCN(C(=O)c2cc(O)nc3ccccc23)C1 (stereo unspecified)
-2.57

Returns the measured Percent Effect for the input molecule. Input: Cc1cc(N2CCN(C(=O)c3cc(Cl)c[nH]3)CC2)nc(N)n1
0.0114
